Target Or Test System: Human TLR4 (Homo sapiens)
Sequence (O00206 24-839): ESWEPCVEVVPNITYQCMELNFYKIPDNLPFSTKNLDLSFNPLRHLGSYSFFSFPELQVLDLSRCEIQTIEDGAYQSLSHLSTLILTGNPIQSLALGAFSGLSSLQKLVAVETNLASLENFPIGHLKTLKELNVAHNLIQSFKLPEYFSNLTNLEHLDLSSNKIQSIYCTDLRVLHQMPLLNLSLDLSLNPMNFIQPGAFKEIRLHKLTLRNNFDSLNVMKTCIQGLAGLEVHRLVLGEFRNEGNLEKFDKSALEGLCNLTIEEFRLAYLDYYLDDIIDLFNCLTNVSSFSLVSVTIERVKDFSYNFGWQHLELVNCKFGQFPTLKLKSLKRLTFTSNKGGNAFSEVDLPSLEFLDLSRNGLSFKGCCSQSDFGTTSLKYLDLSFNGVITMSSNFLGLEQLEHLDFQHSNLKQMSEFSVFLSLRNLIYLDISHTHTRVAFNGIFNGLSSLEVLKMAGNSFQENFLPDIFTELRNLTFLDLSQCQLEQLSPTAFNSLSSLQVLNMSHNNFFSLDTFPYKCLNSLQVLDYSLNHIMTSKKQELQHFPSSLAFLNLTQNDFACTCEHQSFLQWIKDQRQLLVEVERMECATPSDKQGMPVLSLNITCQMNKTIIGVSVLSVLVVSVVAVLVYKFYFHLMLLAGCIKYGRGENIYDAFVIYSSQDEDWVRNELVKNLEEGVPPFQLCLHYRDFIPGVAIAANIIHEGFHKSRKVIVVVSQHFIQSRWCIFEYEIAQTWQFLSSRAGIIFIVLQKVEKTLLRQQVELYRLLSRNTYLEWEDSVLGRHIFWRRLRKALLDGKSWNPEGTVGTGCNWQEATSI
Sequence (Q9Y6Y9 19-160 partner): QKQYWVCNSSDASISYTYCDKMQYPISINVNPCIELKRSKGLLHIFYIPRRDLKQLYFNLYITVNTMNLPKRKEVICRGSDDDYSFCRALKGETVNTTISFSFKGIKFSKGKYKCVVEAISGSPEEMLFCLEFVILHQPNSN
Measurement Notes: Human PBMC cell-based assay, LPS stimulus, IL-6 ELISA
Design: endogenous in cells; host or cells: primary human PBMC from healthy donor blood
Experimental Parameters: Hu PBMC; ligand LPS; analyte IL-6
pIC50: −log10 of the molar value.
pIC50: recorded values

Compound	pIC50
CCN(CCO)CCCC(C)Nc1ccnc2cc(Cl)ccc12 (centres unmarked) [HCQ, Hydroxychloroquine, reference compound]	< 5.00
COc1ccc([C@@H]2C[C@H](C(F)(F)F)n3nc(-c4ccc(C(=O)N5CCNCC5)cc4)cc3N2)cc1OC	< 5.00

====

Target Or Test System: Human TLR7 (Homo sapiens)
Construct: engineered to stably and individually express human TLR4, TLR7 or TLR9 full-length ORF cDNAs
Sequence (Q9NYK1 27-1049): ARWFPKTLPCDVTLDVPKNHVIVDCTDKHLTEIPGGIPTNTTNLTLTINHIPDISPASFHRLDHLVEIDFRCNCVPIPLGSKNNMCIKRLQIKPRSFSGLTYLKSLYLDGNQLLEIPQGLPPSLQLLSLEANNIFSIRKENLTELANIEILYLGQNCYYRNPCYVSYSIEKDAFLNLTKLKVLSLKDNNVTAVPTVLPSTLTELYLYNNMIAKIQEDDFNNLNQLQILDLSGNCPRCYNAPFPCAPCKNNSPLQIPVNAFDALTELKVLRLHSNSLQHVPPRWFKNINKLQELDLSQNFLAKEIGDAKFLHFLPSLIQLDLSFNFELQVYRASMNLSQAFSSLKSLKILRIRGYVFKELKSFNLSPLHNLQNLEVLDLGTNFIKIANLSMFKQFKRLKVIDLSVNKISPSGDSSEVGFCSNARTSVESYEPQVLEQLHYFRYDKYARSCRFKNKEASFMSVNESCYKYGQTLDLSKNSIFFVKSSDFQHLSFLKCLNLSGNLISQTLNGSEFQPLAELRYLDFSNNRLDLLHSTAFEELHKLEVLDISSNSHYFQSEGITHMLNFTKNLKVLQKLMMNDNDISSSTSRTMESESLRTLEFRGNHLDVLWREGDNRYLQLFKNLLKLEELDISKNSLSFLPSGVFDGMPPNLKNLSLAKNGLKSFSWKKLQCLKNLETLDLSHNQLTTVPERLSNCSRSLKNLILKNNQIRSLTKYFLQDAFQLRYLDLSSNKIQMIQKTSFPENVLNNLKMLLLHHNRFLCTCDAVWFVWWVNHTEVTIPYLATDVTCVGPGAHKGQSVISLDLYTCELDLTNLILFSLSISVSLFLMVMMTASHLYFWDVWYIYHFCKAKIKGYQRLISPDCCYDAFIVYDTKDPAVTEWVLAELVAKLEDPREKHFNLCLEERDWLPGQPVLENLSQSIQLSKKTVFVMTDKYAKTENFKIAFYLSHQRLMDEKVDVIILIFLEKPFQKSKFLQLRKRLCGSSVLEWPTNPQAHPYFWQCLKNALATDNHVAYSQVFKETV
Measurement Notes: HEK-293 NF-kappaB luciferase reporter assay, CL097 stimulus
Experimental Parameters: ligand CL097, analyte NFkB-luciferase
Measure: IC50

Chem Smiles	Target Or Test System	Measure	Observed Measurement
COc1ccc([C@@H]2C[C@H](C(F)(F)F)n3nc(-c4ccc(C(=O)N5CCNCC5)cc4)cc3N2)cc1OC	Human TLR7 (Homo sapiens)	IC50	10 nM

====

Target Or Test System: Human TLR1/2 (Homo sapiens, UniProt O60603+Q15399)
Construct: endogenous in cells
Sequence (Q15399 25-786): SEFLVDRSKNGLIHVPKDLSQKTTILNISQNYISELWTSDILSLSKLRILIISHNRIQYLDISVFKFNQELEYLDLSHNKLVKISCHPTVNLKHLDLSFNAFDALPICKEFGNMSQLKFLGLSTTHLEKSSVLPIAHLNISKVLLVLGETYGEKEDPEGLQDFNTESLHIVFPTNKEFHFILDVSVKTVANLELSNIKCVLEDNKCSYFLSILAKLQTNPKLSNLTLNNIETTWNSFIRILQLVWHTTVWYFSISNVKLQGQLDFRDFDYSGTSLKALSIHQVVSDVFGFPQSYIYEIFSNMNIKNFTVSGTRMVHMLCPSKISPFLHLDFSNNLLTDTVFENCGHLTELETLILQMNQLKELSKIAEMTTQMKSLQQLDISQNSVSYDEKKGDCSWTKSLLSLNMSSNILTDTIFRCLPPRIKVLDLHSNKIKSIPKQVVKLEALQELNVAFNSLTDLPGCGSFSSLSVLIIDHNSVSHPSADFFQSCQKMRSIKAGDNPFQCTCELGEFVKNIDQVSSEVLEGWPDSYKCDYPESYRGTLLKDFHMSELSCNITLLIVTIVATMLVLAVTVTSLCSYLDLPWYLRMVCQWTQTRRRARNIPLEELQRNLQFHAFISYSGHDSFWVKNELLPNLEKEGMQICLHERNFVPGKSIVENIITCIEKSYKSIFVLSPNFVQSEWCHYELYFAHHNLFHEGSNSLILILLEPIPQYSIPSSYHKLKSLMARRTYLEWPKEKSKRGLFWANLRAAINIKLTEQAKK
Sequence (O60603 19-784 limits assumed): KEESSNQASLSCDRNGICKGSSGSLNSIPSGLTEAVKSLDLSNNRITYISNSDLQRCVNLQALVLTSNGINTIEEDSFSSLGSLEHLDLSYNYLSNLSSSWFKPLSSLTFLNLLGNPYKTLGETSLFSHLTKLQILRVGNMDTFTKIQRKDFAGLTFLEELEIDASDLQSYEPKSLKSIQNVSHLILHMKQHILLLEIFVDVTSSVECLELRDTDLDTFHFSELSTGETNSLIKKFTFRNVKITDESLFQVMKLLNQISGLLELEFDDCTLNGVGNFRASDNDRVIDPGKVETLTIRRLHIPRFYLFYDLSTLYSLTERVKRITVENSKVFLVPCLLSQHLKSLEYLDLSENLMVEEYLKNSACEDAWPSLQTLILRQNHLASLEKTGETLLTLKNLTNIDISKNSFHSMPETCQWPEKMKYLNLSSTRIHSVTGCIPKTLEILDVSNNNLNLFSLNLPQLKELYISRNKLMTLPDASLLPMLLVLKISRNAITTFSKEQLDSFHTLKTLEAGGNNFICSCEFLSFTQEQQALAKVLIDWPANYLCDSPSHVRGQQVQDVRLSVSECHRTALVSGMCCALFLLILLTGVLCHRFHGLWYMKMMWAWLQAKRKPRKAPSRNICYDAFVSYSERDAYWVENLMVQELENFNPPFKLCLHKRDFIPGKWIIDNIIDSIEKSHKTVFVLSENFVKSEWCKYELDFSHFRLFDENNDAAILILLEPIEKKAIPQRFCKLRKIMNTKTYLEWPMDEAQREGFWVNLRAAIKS
Measurement Notes: Human PBMC cell-based assay, Pam3CSK4 stimulus, IL-6 ELISA
Experimental Parameters: Hu PBMC; ligand Pam3CSK4; analyte IL-6
Protocol: Human peripheral blood mononuclear cells (PBMC) were isolated from freshly-drawn heparinized (10 USP units/ml, Hospira, Lakeforest, Ill.) healthy donor whole blood by density gradient (Histopaque® 1077, Sigma, Inc., St. Louis, Mo.). Briefly, 25 ml blood was diluted with 15 ml PBS (without Ca^2+, Mg^2+) in a 50 ml conical tube, and 12 ml Histopaque was underlaid using a spinal needle. Tubes were centrifuged for 45 minutes at 1200 rpm (350×g), and PBMC were collected from the buffy coat. […]
Measure: IC50

Chem Smiles	Target Or Test System	Observed Measurement
COc1ccc([C@@H]2C[C@H](C(F)(F)F)n3nc(-c4ccc(C(=O)N5CCNCC5)cc4)cc3N2)cc1OC	Human TLR1/2 (Homo sapiens, UniProt O60603+Q15399)	> 10 µM
